test system: NCI-H460; assay: NCI tumour cell line growth inhibition, 48 h
Calls of active or inactive are those of the source. No stated cut-off is given here; in the data, active = GI50 up to about 1.1 µM and inactive = higher.
Classes used: active, inactive

- COMPOUND: "C=CCC(C(=O)O)c1ccccc1 (configuration not stated)"
  ASSIGNED CLASS: "inactive"
- COMPOUND: "Cc1nc2c3c(ncn2n1)Oc1c(c(-c2ccccc2)nn1-c1ccccc1)C3c1ccc(Cl)cc1 (configuration not stated)"
  ASSIGNED CLASS: "inactive"
- COMPOUND: "N#Cc1[nH]c(=O)n(-c2ccc([N+](=O)[O-])cc2)c1N"
  ASSIGNED CLASS: "inactive"
- COMPOUND: "Cn1cnc2[nH]c(=O)[nH]c(=S)c21"
  ASSIGNED CLASS: "inactive"
- COMPOUND: "Cn1c2ccccc2n2c3ncccc3c(=O)cc12"
  ASSIGNED CLASS: "inactive"
- COMPOUND: "CC1=CC[C@H](C)C(C)(C)C1/C=C/C(C)=C/CC[C@@]1(CO)[C@H](CCCO)/C(=C(/C)C=O)CC[C@]1(C)O (some centres not stated)"
  ASSIGNED CLASS: "active"
- COMPOUND: "CCOC(CN(C)C(=O)Nc1cccc2ccccc12)OCC"
  ASSIGNED CLASS: "inactive"
- COMPOUND: "Cc1sc2nc3n(c(=O)c2c1C)N=CN(c1ccc(Cl)cc1)C3"
  ASSIGNED CLASS: "inactive"
- COMPOUND: "CC1C2CC(CC23OCC(CCl)O3)C1(C)C (configuration not stated)"
  ASSIGNED CLASS: "inactive"
- COMPOUND: "NC(CCSCC(F)(F)F)C(=O)O (configuration not stated)"
  ASSIGNED CLASS: "inactive"
- COMPOUND: "C=CC(=O)N1C/C(=C\\c2ccc(N(C)C)cc2)C(=O)/C(=C/c2ccc(N(C)C)cc2)C1"
  ASSIGNED CLASS: "inactive"
- COMPOUND: "CCOC(=O)C(C(=O)OCC)c1cc(-c2cc3ccccc3o2)oc(=O)c1C#N"
  ASSIGNED CLASS: "inactive"

====

tested on: CAKI-1; assay: NCI tumour cell line growth inhibition, 48 h
Active and inactive are the calls of the source. No stated cut-off is given here; in the data, active = GI50 up to about 1.1 µM and inactive = higher.
GI50 overview
READOUT LABEL: GI50

- SMILES STRING: "O=C1CNS(=O)(=O)N1"
  TESTED TARGET: "CAKI-1"
  READOUT LABEL: "GI50"
  REPORTED RESULT: "> 100 µM (inactive)"
- SMILES STRING: "COCCN1C2=CCCCC2=Nc2c(N)nc(N)nc21"
  TESTED TARGET: "CAKI-1"
  READOUT LABEL: "GI50"
  REPORTED RESULT: "> 100 µM (inactive)"
- SMILES STRING: "Cc1cnc2c(c1C)C(=O)c1ccccc1C2=O"
  TESTED TARGET: "CAKI-1"
  READOUT LABEL: "GI50"
  REPORTED RESULT: "30 µM (inactive)"
- SMILES STRING: "O=c1c(-c2ccccc2)c(SCCN2CCCCCC2)n(-c2ccccc2)c(=S)n1-c1ccccc1"
  TESTED TARGET: "CAKI-1"
  READOUT LABEL: "GI50"
  REPORTED RESULT: "22.9 µM (inactive)"

From: ChEMBL document CHEMBL1201862
